TEST_TARGET: Nav 1.7 (Homo sapiens (Human), UniProt Q15858)
Sequence (Q15858 whole entry): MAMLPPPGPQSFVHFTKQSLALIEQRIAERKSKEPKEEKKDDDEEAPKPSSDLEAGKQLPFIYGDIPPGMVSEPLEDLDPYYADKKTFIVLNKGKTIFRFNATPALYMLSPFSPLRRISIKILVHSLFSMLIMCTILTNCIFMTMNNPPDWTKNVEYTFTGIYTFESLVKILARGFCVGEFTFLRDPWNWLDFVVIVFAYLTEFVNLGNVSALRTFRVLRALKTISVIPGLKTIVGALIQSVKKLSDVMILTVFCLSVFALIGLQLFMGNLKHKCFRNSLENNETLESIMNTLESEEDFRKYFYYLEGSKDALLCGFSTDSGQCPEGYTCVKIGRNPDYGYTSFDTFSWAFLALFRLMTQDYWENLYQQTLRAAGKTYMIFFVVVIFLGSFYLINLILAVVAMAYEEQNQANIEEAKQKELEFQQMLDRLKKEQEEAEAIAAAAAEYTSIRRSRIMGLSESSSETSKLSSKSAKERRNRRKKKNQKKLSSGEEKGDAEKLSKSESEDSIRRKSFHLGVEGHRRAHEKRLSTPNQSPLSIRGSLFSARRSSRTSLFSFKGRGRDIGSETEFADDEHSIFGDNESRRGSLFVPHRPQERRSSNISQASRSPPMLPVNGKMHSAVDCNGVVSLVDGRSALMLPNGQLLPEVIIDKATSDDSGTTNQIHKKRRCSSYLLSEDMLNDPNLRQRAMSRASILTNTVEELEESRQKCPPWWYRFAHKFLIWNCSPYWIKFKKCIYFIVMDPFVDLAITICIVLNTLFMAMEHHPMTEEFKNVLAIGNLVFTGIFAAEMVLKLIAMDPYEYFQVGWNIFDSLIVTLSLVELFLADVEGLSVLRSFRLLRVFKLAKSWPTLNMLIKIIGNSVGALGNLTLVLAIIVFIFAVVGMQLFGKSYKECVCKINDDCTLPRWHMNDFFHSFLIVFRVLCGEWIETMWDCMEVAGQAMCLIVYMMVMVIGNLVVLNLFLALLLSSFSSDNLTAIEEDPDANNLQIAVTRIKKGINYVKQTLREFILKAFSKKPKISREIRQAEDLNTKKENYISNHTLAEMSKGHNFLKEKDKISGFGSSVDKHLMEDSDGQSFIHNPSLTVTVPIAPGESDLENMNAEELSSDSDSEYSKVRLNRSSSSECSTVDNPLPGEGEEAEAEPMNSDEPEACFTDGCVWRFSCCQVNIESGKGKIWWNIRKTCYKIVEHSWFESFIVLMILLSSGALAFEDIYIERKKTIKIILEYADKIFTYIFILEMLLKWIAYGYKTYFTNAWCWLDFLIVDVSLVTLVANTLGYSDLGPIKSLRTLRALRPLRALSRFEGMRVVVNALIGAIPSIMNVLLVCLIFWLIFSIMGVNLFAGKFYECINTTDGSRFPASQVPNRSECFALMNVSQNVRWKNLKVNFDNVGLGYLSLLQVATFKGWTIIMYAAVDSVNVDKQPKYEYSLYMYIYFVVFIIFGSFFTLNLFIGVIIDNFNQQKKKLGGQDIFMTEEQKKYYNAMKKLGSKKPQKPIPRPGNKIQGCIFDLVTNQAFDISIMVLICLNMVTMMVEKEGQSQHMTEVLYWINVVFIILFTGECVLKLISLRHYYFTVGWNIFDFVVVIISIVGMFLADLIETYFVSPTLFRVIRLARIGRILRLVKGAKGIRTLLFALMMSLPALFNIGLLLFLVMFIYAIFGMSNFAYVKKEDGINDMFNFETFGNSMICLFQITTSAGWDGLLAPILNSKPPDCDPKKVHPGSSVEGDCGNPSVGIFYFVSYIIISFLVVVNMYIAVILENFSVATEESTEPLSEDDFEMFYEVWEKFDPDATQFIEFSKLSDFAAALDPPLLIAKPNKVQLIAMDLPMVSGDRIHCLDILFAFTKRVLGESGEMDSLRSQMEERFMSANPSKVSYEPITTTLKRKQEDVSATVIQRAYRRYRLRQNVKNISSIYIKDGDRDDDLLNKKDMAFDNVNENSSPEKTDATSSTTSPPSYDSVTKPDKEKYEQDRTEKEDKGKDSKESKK
PROCEDURE_DETAILS: Nav 1.7 in vitro assay, IonWorks Quattro (IWQ) population patch-clamp
Assay type: cell-based
STUDY_CONDITIONS: HEK 293 cells stably transfected with Nav 1.7; 26th pulse to -20 mV
MEASUREMENT_LABEL: IC50 (µM)

Recorded IC50, per entry:
1. O=S(=O)(Nc1nccs1)c1ccc2c(c1)OCCN2c1ccc(Cl)cc1C1=CCNCC1 [Example 52, 2,2,2-Trifluoroacetate] :: 0.0045
2. N#Cc1cc(C(F)(F)F)ccc1N1CCOc2cc(S(=O)(=O)Nc3cscn3)ccc21 :: 1.63
3. CC(C)c1ccc(N2CCOc3cc(S(=O)(=O)Nc4nccs4)ccc32)c(C#N)c1 :: 0.0935
4. N#Cc1cc(F)ccc1N1CCOc2cc(S(=O)(=O)Nc3nccs3)ccc21 :: 0.178
5. O=S(=O)(Nc1ncns1)c1ccc2c(c1)OCCN2c1cccc(OC(F)(F)F)c1 :: 0.0435
6. COc1ccc(N2CCOc3cc(S(=O)(=O)Nc4nccs4)ccc32)cc1OC :: 2.53
7. C[C@H]1CN(c2ccc(C(F)(F)F)cc2C#N)c2ccc(S(=O)(=O)Nc3nccs3)cc2O1 (single isomer, unassigned) :: 0.0085
8. COCCOc1ccc(N2CCOc3cc(S(=O)(=O)Nc4ncns4)ccc32)cc1 :: 0.333
9. COc1cnccc1N1CCOc2cc(S(=O)(=O)Nc3nccs3)ccc21 :: 1.49
10. COc1cc(Cl)ccc1N1C[C@H](C)Oc2cc(S(=O)(=O)Nc3nccs3)ccc21 (single isomer, unassigned) :: 0.11

(1) N#Cc1cc(C(F)(F)F)ccc1N1CCOc2cc(S(=O)(=O)Nc3ncns3)ccc21
(2) N#Cc1cc(C(F)(F)F)ccc1N1CCOc2cc(S(=O)(=O)Nc3ncco3)ccc21
Of 1 and 2 , which one carries the higher reported IC50? // return label of chosen record
2
(2: 0.924 µM, 1: 0.016 µM)

(a) Cc1cc(N2CCOc3cc(S(=O)(=O)Nc4nccs4)ccc32)c(C)cn1
(b) O=S(=O)(Nc1ccno1)c1ccc2c(c1)OCCN2c1ccc(C(F)(F)F)cc1Cl
Of a and b , which one carries the higher reported IC50? // return label of chosen record
b
(b: 2.92 µM, a: 1.34 µM)

(P) CCC1CN(c2ccc(C(F)(F)F)cc2C#N)c2ccc(S(=O)(=O)Nc3nccs3)cc2O1 (single isomer, unassigned) [Example 102]
(Q) O=S(=O)(Nc1cnccn1)c1ccc2c(c1)OCCN2c1ccc(C(F)(F)F)cc1C1=CCNCC1
Of P and Q , which one carries the higher reported IC50? // return label of chosen record
P
(P: 1.39 µM, Q: 0.224 µM)

(A) O=S(=O)(Nc1ncns1)c1ccc2c(c1)OCC(c1ccccc1)N2c1ccc(C(F)(F)F)cc1 (stereo not shown)
(B) Cc1ccc(Cl)cc1N1CCOc2cc(S(=O)(=O)Nc3nccs3)ccc21 [Example 178, 2,2,2-Trifluoroacetate]
(C) CC[C@H]1CN(c2ccc(C(F)(F)F)cc2C#N)c2ccc(S(=O)(=O)Nc3nccs3)cc2O1 (single isomer, unassigned)
Order by IC50, ascending. Could you list the labels in the order requested?
B, C, A
(B: 0.129 µM, C: 0.367 µM, A: 2.45 µM)
